- System: BT-549
- testDescription: NCI tumour cell line growth inhibition, 48 h
Activity calls are given as the source filed them. Cut-off read from the data, not from the text of the source: active = GI50 up to about 1.1 µM and inactive = higher.
Labels: 1 (yes) = active, 0 (no) = inactive

compound=COc1cc2c(c(N)c1OC)C(=O)/C(=C/c1cc(C)c(O)c(C)c1)C2 assignedlabel="0 (no)"
compound=CCN(CC)CCOC(=O)CCN1CC2CCC(CC2)C1 assignedlabel="0 (no)"
compound="CC12CC(=O)C3C(C(=O)C1)C32C (centres undefined)" assignedlabel="0 (no)"
compound=COC(=O)[C@@H](NC(=O)c1ccc(CNC(=O)/C(C)=C/c2ccccc2)cc1)C(C)C assignedlabel="0 (no)"
compound=Clc1ccc(OCc2nnc(CCCCCCCCc3nnc(COc4ccc(Cl)cc4)n3Nc3ccccc3)n2Nc2ccccc2)cc1 assignedlabel="0 (no)"
compound="COC(=O)c1ccccc1/C=C1\\Cc2ccc3ccccc3c2C1C (centres undefined)" assignedlabel="0 (no)"
compound="N#Cc1cccc(N2C(=O)C3C4C=CC(C3C2=O)C2C(=O)N(c3cccc(C#N)c3)C(=O)C42)c1 (centres undefined)" assignedlabel="0 (no)"
compound="COC(=O)[C@@]12OC[C@]34[C@H]([C@@H](O)[C@@H]1O)[C@@]1(C)CC(=O)C(O)=C(C)[C@@H]1C[C@H]3OC(=O)[C@H](OC(=O)/C=C(\\C)C(C)C)[C@@H]24 [BRUCEANTIN]" assignedlabel="1 (yes)"
compound=O=C(O)COc1ccc(C(=O)/C(SS/C(C(=O)c2ccc(OCC(=O)O)c(Cl)c2Cl)=C2\C=C(c3ccc(F)cc3)SS2)=C2/C=C(c3ccc(F)cc3)SS2)c(Cl)c1Cl assignedlabel="0 (no)"

###

What follows is a record of log10(GI50) for HCT-15.
measurementType: log10(GI50) (log10 of the value in µM)

compound="CC(C)c1ccc2c(c1)[C@@]1(C)CC[C@H](C)C(C)(C)C1CC2 (stereo not given in full)" measurementtype=log10(GI50) observedresult=1.26
compound="Cc1ccc(C2(N3CCCC3)OC(C)(C)c3cccc4cccc2c34)cc1 (stereo not given)" measurementtype=log10(GI50) observedresult=1.19
compound="COC(=O)C12CCC(C)(C)CC1C1=CCC3C4(C)CC(O)C(O)C(C)(C(=O)OC)C4CCC3(C)C1(CO)CC2 (stereo not given)" measurementtype=log10(GI50) observedresult=1.16
compound=Clc1ccc(OCc2nnc(CCCCCCCCc3nnc(COc4ccc(Cl)cc4)n3Nc3ccccc3)n2Nc2ccccc2)cc1 measurementtype=log10(GI50) observedresult=0.61
compound=Brc1cc(C2OCCCO2)ccc1OCc1ccccc1 measurementtype=log10(GI50) observedresult=1.68
compound="Cc1ccc(OCC2=NN3C(=O)/C(=C\\c4ccc([N+](=O)[O-])o4)SC3N2)cc1 (stereo not given)" measurementtype=log10(GI50) observedresult=0.38
compound="O=C1CSC(c2cc3cc(Br)ccc3nc2Cl)N1c1ccc(F)c(Cl)c1 (stereo not given)" measurementtype=log10(GI50) observedresult=1.52

###

- System: SK-OV-3
- testDescription: NCI tumour cell line growth inhibition, 48 h
Calls of active or inactive are those of the source. No stated cut-off is given here; in the data, active = GI50 up to about 1.1 µM and inactive = higher.
Possible outcomes: active, inactive

compound=N#CCCN(CCC#N)c1ccc(/C=C2\SC(=S)NC2=O)cc1 assignedlabel=inactive
compound=Brc1cc(C2OCCCO2)ccc1OCc1ccccc1 assignedlabel=inactive
compound="CC(O)c1cc2c(s1)C(=O)c1c(C(C)O)csc1C2=O (stereo not drawn)" assignedlabel=active
compound=CCOC(=O)COc1ccc(OC)c2c1C(=O)CCC2 assignedlabel=inactive
compound=CCCCCCCCC(=O)NCCCNCCCNC(=O)CCCCCCCC assignedlabel=inactive
compound=Cc1cc(C2(O)C=C(C(C)(C)C)C(=O)C(C(C)(C)C)=C2)c(C)cc1C1(O)C=C(C(C)(C)C)C(=O)C(C(C)(C)C)=C1 assignedlabel=inactive
compound="CCOC(=O)C(=O)CC(=O)C(Br)C(Br)c1ccc(Cl)cc1 (stereo not drawn)" assignedlabel=inactive
compound=CC(C)(C)[Si](Nc1ccccc1)(c1ccccc1)c1ccccc1 assignedlabel=inactive
compound="Cc1ccc(OCC2=NN3C(=O)/C(=C\\c4ccc([N+](=O)[O-])o4)SC3N2)cc1 (stereo not drawn)" assignedlabel=inactive
compound="CC1(C)OC(=O)N(c2ccccc2)C12C=Cc1cc([N+](=O)[O-])cc([N+](=O)[O-])c1O2 (stereo not drawn)" assignedlabel=inactive
compound=O=C(O)COCC(=O)N(CCOCCN(Cc1ccccc1)C(=O)COCC(=O)O)Cc1ccccc1 assignedlabel=inactive
compound="COc1cc(C2c3cc4c(cc3[C@@H](Nc3ccccc3)C3COC(=O)[C@H]23)OCO4)cc(OC)c1O (stereo partly drawn)" assignedlabel=active
compound=Nn1c(S)nnc1C12CC3CC(CC(C3)C1)C2 assignedlabel=inactive
compound=Cn1ncc2c(Nc3ccc(Cl)cc3)c3ccccc3nc21 assignedlabel=inactive
compound=COc1ccc2nc3c([N+](=O)[O-])ccc(NCCCN(C)C)c3c(N)c2c1 assignedlabel=inactive
compound=C=C(C)[C@H]1CC(=O)[C@@]2(C)C[C@H]3O[C@]3(C)CC/C=C(\C)CC[C@H]12 assignedlabel=inactive
compound=CCCCCOc1ccc(/C=N\c2ccc(CCc3ccc(/N=C/c4ccc(OCCCCC)cc4)cc3)cc2)cc1 assignedlabel=inactive
compound="C=C(C)C1Cc2c(c3ccccc3n(C)c2=O)O1 (stereo not drawn)" assignedlabel=inactive
compound=Cc1ccc(C)n1-c1ccccc1C1C=CN(C(=O)OC(C)(C)C)C=C1 assignedlabel=inactive
compound=CC(C)=CC(=O)CC(=O)C(=O)Nc1ccc(Cl)c(Cl)c1 assignedlabel=inactive
compound=C/C(=N\NC1=NCCN1)c1cn(C2=NCCN2)nc1C assignedlabel=inactive
compound=OCCN(/N=C\c1ccc2ccccc2c1)C1=NCCN1 assignedlabel=inactive
compound=O=C1c2cccnc2C(=O)c2c1nc1ccccc1c2-c1cncc(-c2c3c(nc4ccccc24)C(=O)c2cccnc2C3=O)c1 assignedlabel=active
compound="CSC[S+]([O-])C[C@H](CO)NC(=O)/C=C/c1c(C)[nH]c(=O)[nH]c1=O (stereo partly drawn)" assignedlabel=inactive
compound=CCOc1ccc(/N=C/C=C(\Cl)c2ccc3ccccc3c2)cc1 assignedlabel=inactive
compound="CC1=C(C#N)C2C(=C(N)Oc3ccccc32)C(N)=N1 (stereo not drawn)" assignedlabel=inactive
compound=CN(CC(=O)O)S(=O)(=O)c1ccc2ccccc2c1 assignedlabel=inactive
compound=CC(CO)(CO)/N=C/c1cc(I)cc(I)c1O assignedlabel=inactive
compound=O=C(O)CCNS(=O)(=O)c1ccc(NC(=O)c2ccccc2)cc1 assignedlabel=inactive
compound="COC(=O)[C@@]12OC[C@]34[C@H]([C@@H](O)[C@@H]1O)[C@@]1(C)CC(=O)C(O)=C(C)[C@@H]1C[C@H]3OC(=O)[C@H](OC(=O)/C=C(\\C)C(C)C)[C@@H]24 [BRUCEANTIN]" assignedlabel=active
compound="C/C1=C\\[C@@H](O)C(=O)/C=C/C=C\\c2csc(n2)[C@@H](C)NC(=O)C[C@@]2(CC1)[S+]([O-])SC(=O)[C@]2(C)O (stereo partly drawn)" assignedlabel=active
compound=CCN(CC)CCNc1ccc2ncn3c4cc(O)ccc4c(=O)c1c23 assignedlabel=inactive
compound=COc1cc2c(cc1OC)[C@H](C)N1CCc3cc(OC)c(OC)cc3[C@@H]1C2 assignedlabel=inactive
compound="O=C1C2CC=CCC2C(=O)C12CCc1ccccc12 (stereo not drawn)" assignedlabel=inactive
compound=CC(C)(C)CC(C)(C)c1ccc(O)c(C[N+](C)(C)[O-])c1 assignedlabel=inactive
compound="Cc1cnc(Cl)nc1C(C#N)c1nc2ccccc2n1C (stereo not drawn)" assignedlabel=inactive
compound=Cc1ccc(-c2c(C#N)c(S)n(NS(=O)(=O)c3ccc(C)cc3)c(=O)c2C#N)cc1 assignedlabel=inactive
compound=CC(=O)Nc1ccc(Sc2nnc(NC(C)=O)s2)cc1 assignedlabel=inactive

###

- Test system: NCI-H522
- testDescription: NCI tumour cell line growth inhibition, 48 h
The source made the active and inactive calls. Cut-off read from the data, not from the text of the source: active = GI50 up to about 1.1 µM and inactive = higher.
Possible outcomes: 1 = active, 0 = inactive

compound="CS(=O)(=O)OCC1CCCCCCCCCCC12SCCCS2 (stereo unspecified)" assignedlabel=0
compound=N[C@H]1CCN(c2c(F)cc3c(=O)c(C(=O)O)cn4c3c2Oc2cc3c(ccc5ccccc53)cc2-4)C1 assignedlabel=0
compound="CCOC(=O)C(=O)CC(=O)C(Br)C(Br)c1ccc(Cl)cc1 (stereo unspecified)" assignedlabel=0
compound=Cc1c(-c2ccccc2)c(C#N)c2nnn(-c3cccc(Cl)c3)c(=O)n12 assignedlabel=0
compound=[O-][n+]1c(-c2ccccc2)oc2ccccc21 assignedlabel=0
compound="CCN(CC)c1ccc(/C=C/C2=NN(c3cccc(S(=O)(=O)O)c3)C3(C2)C(Cl)C(=O)N3c2nc3ccccc3s2)cc1 (stereo unspecified)" assignedlabel=0
compound=Fc1ccc2c(c1)cc1ccc3cccc4ccc2c1c34 assignedlabel=0
compound="O=C1CSC2(CC(/C=C/c3cccc(Br)c3)=NN2c2cccc(S(=O)(=O)O)c2)N1c1nc2ccccc2s1 (stereo unspecified)" assignedlabel=0
compound=Nn1c(S)nnc1C12CC3CC(CC(C3)C1)C2 assignedlabel=0
compound=N#Cc1c(N)c2c(c(-c3ccccc3)c1-c1ccccc1)C(=O)N(O)C2=O assignedlabel=0
compound="Cc1ccc(/N=C2\\N=C(N3CC(C)OC(C)C3)c3ccccc32)cc1 (stereo unspecified)" assignedlabel=0
compound=Cc1cccc2c(N)c3cccc(C(=O)NCCN4CCOCC4)c3nc12 assignedlabel=1
compound=Cc1sc2nc3n(sc4nc5sc(C)c(C)c5c(=O)n43)c(=O)c2c1C assignedlabel=0
compound="C[N+]1([O-])[C@H]2CC(OC(=O)[C@H](CO)c3ccccc3)C[C@H]1[C@H]1O[C@H]12 (stereo partly specified)" assignedlabel=0
compound=CN(C)CCCNC(=O)N/N=C\c1cccc2ccccc12 assignedlabel=0
compound=COC(=O)/C(C#N)=C1\NC(=O)c2ccccc21 assignedlabel=0
compound="Cc1ccc(NC(=O)C2C(=O)N(c3ccc(C)cc3)C(=O)/C2=N\\NC(N)=S)cc1 (stereo unspecified)" assignedlabel=0
compound=COc1cc2c(cc1OCCCN1C(=O)c3cccc4cccc(c34)C1=O)N=C[C@@H]1CCCN1C2=O assignedlabel=0
compound="C=C1C(=O)C2=CC1CCC(=O)C1(C)CCC(OC(C)=O)C(C)(C)C1CC2O (stereo unspecified)" assignedlabel=1
compound=O=C(O)/C=C/C(=O)N1C/C(=C\c2ccccc2)C(=O)/C(=C/c2ccccc2)C1 assignedlabel=0
compound=O=C(CCN1CCCCC1)C(=Cc1ccccc1)C(=O)CCN1CCCCC1 assignedlabel=0
